# EXPERIMENTAL_TARGET: human placental aromatase enzyme (Homo sapiens)
# Construct: from tissue; host or cells: human placenta
# METHOD_DESCRIPTION: Human placental aromatase inhibition assay
# Type: biochemical
EXPERIMENTAL_ENDPOINT: IC50 (nM)
Give the value in nM but do not write nM after it.

Lookup: Kindly state the measured IC50 obtained for C[C@@H]1CC2=CC(=O)CC[C@@H]2[C@H]2CC[C@@]3(C)[C@@H](CC[C@]3(C)O)[C@@H]21 [Compound 1, Mibolerone] with human placental aromatase enzyme (Homo sapiens).
Found: 372

----------
I'd be grateful if you could share measured pIC50 for these entries.
# Tested on: nitric oxide (NO) production
# METHOD_DESCRIPTION: Nitric oxide assay (LPS-induced J774.2 macrophages, Griess method)
# Format: cell-based, mouse
# RECORDED_CONDITIONS: Mus musculus, J774.2, read-out: IC50 against nitric oxide (NO) production
Scale for pIC50: -log10 of concentration given in mol/L; no unit attached.

Lookup: Which pIC50 value is on record for C[C@@H]1C[C@H]2C[C@H](O)CC[C@]2(O)[C@H]2CC[C@@]3(C)[C@@H](CC[C@]3(C)O)[C@H]12 ?
Found: 4.24

Lookup: Which pIC50 value is on record for C[C@@H]1Cc2cc(O)ccc2[C@@H]2[C@@H]1[C@@H]1CC[C@](C)(O)[C@@]1(C)C[C@@H]2O ?
Found: 4.31

----------
I'd be grateful if you could share measured pIC50 for these entries.
# EXPERIMENTAL_TARGET: human placental aromatase enzyme (Homo sapiens, UniProt P11511)
# Construct: from tissue; host or cells: human placenta
# Sequence (P11511 whole entry): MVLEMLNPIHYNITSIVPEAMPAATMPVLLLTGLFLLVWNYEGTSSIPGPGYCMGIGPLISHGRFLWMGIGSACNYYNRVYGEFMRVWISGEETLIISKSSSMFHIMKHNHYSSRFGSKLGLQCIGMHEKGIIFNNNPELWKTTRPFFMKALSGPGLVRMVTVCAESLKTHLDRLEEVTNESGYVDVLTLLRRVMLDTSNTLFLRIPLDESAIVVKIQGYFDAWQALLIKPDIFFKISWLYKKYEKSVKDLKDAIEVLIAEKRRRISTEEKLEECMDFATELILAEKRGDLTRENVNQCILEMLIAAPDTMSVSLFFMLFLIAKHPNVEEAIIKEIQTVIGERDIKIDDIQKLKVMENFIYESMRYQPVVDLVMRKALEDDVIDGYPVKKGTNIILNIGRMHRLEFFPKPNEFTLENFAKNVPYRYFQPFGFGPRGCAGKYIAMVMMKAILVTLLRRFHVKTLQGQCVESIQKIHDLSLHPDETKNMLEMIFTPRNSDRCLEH
# METHOD_DESCRIPTION: Human placental aromatase inhibition assay
# Assay type: biochemical
# RECORDED_CONDITIONS: testosterone to 17β-estradiol conversion, in vitro; read-out: IC50 against human placental aromatase enzyme
Scale for pIC50: -log10 of concentration given in mol/L; no unit attached.

Lookup: Which pIC50 value is on record for CC1=CC2=CC(=O)CC[C@@H]2[C@H]2CC[C@@]3(C)[C@@H](CC[C@]3(C)O)[C@H]12 ?
Found: 6.51

Lookup: Which pIC50 value is on record for C[C@@H]1C[C@H]2C[C@H](O)CC[C@]2(O)[C@H]2CC[C@@]3(C)[C@@H](CC[C@]3(C)O)[C@H]12 ?
Found: 7.14

Lookup: Which pIC50 value is on record for C[C@@H]1Cc2cc(O)ccc2[C@@H]2[C@@H]1[C@@H]1CC[C@](C)(O)[C@@]1(C)C[C@@H]2O ?
Found: 6.50

----------
# METHOD_DESCRIPTION: Cytotoxicity against BJ normal cell line
# RECORDED_CONDITIONS: human, BJ normal human fibroblast cells
EXPERIMENTAL_ENDPOINT: pIC50
Scale for pIC50: -log10 of concentration given in mol/L; no unit attached.

Lookup: Which pIC50 value is on record for C[C@@H]1CC2=CC(=O)CC[C@@H]2[C@H]2CC[C@@]3(C)[C@@H](CC[C@]3(C)O)[C@@H]21 ?
Found: 4.10
